# System: MS2 coat protein
# Test Protocol: apparent KD of MS2 coat protein; designed switch direction (-1 OFF switch, 1 ON switch): 1; higher = weaker reporter binding
# Applied Conditions: Eterna round: R95; input ligand: microRNA oligo, concentration not stated
Property: apparent KD of MS2 coat protein (nM)
State the answer as a number, implicitly in nM.

Examples with answers:
Residue String	Test Value
AGUCCAGCCUGAGCUGGACAAAAGCAUGUACAUGAGGAUCACCCAUGUUCAUGUACAAGCUUUUUGUUCGUCUUAAA [Zipper 52 - 9] (puzzle: Sensor for hsa-mir-208a)	11
GAGUAGGACUUACAGGAUAUAUGGAGGUUGACAUGAGGAUCACCCAUGUCUGAGUUGGGAGGAGGAUAGAAGGGUAUGAGAGGCG [JR_SS2_Sub031] (puzzle: Same State 2)	23.3

Query sequence follows.
What is its apparent KD of MS2 coat protein for MS2 coat protein? Entry: UAGAAACAUGAGGAUCACCCAUGUGUCAAAGACAUAGGAUAUCAUAACUGGCGCCAGUUAUGAGAAGGGUGGUAAA [Belezaqu] (puzzle: Same State 1)
52.6

###

# System: MS2 coat protein
# Test Protocol: apparent KD of MS2 coat protein; designed switch direction (-1 OFF switch, 1 ON switch): 1; higher = weaker reporter binding
# Applied Conditions: input ligand: microRNA oligo, concentration not stated
// apparent KD of MS2 coat protein lookup, one value per entry
State the answer as a number, implicitly in nM.

Residue String	Quantity Unit	apparent KD of MS2 coat protein
AUAAGACAGGCAGGAUAUGGGCCUGACUCUGAUAUCAGAGUCUACACAUGAGGAUCACCCAUGUCCCAGAAGGGCCUGAAGAAG [Zavean] (Eterna round: R96, puzzle: Same State NG 2)	nM	92.2
GAGUAGUUGAAAGGAUAUUGAUUAUUGUAGGAUCAAGAAGGUUUUAACAUGAGGAUCACCCAUGUAGGACUAUAAAUGUGAAAA [Parity 94 - Jieux - Same State NG 1] (Eterna round: R96, puzzle: Same State NG 1)	nM	10.1
UUGAAGAAUUAAGGAUAUUGAAUACAUAUGUUUAACAUGAGGAUCACCCAUGUGGGUUGCGGUAUCGAGAAGGUAAAUUACUAA [Mat - Same State NG 2 - JL mod - D1] (Eterna round: R96, puzzle: Same State NG 2)	nM	80.5

Query sequence follows.
Given the entry GAGUGGUAGAGAGGAUAUGCAUUGUUAUUAAAUGCAGAAGGUUUUAACAUGAGGAUCACCCAUGUAGGACUAUUCCUGUGUUUC [Parity 66 - Jieux - Same State NG 1] (Eterna round: R96, puzzle: Same State NG 1) , report its measured apparent KD of MS2 coat protein.
10.8

###

# Tested on: K4 kissing-loop RNA reporter;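 also: bound reporter read as fluorescence of individual clusters on recovered sequencing chips by microscopy, with normalized cluster intensities fitted with a binding model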
# Test Protocol: apparent KD of K4 kissing-loop reporter; higher = weaker reporter binding
# Applied Conditions: Eterna round: R107; input ligand: none
Label criterion met for high-side apparent KD of K4 kissing-loop reporter (at or above 0.2 µM) and criterion not met for low-side apparent KD of K4 kissing-loop reporter (below it).

Residue String	Class Label
GGUAUGGAAGCAACAUCACAAGCCGUACCACGAGGACCGGUACGGCCGCCACUCGAUAACUUGCAGUGAUGUUGCAAGUAAGAAU [(T)''-(K)'-(T)'-(T1)-(T2)-(K1)-(K2)_Design6]	criterion not met
AGUGGACGUGUCUAGAGUGAUGUUCCGGAUACCAGACACGAAAGUGUCCCUUGGCAGCCGGAGUGAUGUUCUGGCGUUCACUAAA [Omei KL Theo A Exc B v6]	criterion met
AAGCAGUCCCUCGAAGCCAUCGAAGAUGGGCGAGGACCGGUACGGCCGCCACUCGGAGUGAUGUUCCGAAGACUGCAAAAUAAAA [MatMod 3 - Jieux - Exclusion - Tryptophan A]	criterion not met
AGUAGAGCAUCAGAUACCAGACUGAACUGAUGGUAAGGAGUGAUGUUCCUUAAUCAGCUAGUCCCUUGGCAGCUGAUAAUAGUCA [Theo B SS t3]	criterion met

We next turn to a different sequence, shown below.
Check the entry CGCAGUGAUGUUGCGAAUAUAAUUACGGAAGGAGCGCGUGAAAACGCAGGUAGGUCGCCGUUUGGUAUGAUGGAAACAUCGUACC [Arginine A K4 10] : does apparent KD of K4 kissing-loop reporter equal or exceed 0.2 µM?
criterion not met

###

# System: MS2 coat protein
# Test Protocol: apparent KD of MS2 coat protein, switch OFF state (with FMN for OFF switches, without FMN for ON switches); designed switch direction (-1 OFF switch, 1 ON switch): 1; higher = weaker reporter binding
# Applied Conditions: FMN input: 0 or 200 uM; Eterna round: R93 (includes R88 designs)
Property: apparent KD of MS2 coat protein (nM)
State the answer as a number, implicitly in nM.

Examples with answers:
Residue String	Measured On	apparent KD of MS2 coat protein (nM)
AAAAAACAUGAGGAUCACCCAUGUCAAAAGACAUGAGGAUAUGUACAGACUUCGGUCUGUACAGAAGGCAUGUCAA [SS1 - 1019]	MS2 coat protein	31.7
AAUAUAUUAAGUGAGGAUAUCGAGGAAAAAACAUGAGGAUCACCCAUGUGGGAAACAUGGUCGGGUGAGAAGGCACUUAAUAUAU [Samwise Clockwise 25 - Jieux - Same State 2]	MS2 coat protein	326
AAGGCACAUGAGGAUCACCCAUGUUAGCCGCGACGAGGAUAUGGGAACGCGUCAGCGGAAUUAGAAGGUGUGGUGA [Qusoquan]	MS2 coat protein	37.8
GGGAGACAUGAGGAUCACCCAUGUGAGAAGAGGCGAGGAUAUCGAAAGAAAGAAGAGAAACGAGAAGGCGCGAGCU [salish99-SS1-056]	MS2 coat protein	62
AAGACACAUGAGGAUCACCCAUGUCAAGAGAGACGAGGAUAUCUGAAUUAAUUAAAUUAAGGAGAAGGCGUGAAAA [Same State of Confusion2]	MS2 coat protein	58.1

Query sequence follows.
What is its apparent KD of MS2 coat protein for MS2 coat protein? Entry: AAUACCACUAGCAAGGAUAUCUAAAACGAAACAUGAGGAUCACCCAUGUGACGACCACACGUAUCAGAGAAGGUGCAGGGUGAAU [JR_SS002_Sub306]
24

###

# Test system: MS2 coat protein
# Test Protocol: apparent KD of MS2 coat protein, switch ON state; designed switch direction (-1 OFF switch, 1 ON switch): -1; higher = weaker reporter binding
# Applied Conditions: FMN input: 0 or 200 uM; Eterna round: R93 (includes R88 designs)
Property: apparent KD of MS2 coat protein (nM)
State the answer as a number, implicitly in nM.

Residue String	Property	Test Value
ACAAAUGUAGGAUAUACAUGAGGAUCACCCAUGUGGCAGAAACAGCAAACAAGACGAAGUAGAAGGACAACGAC [JR_Exc003-Sub902]	apparent KD of MS2 coat protein	29.1
AAGAACAGAGGAUAUGCUAAAGAAAUAAAAAUAAAUAAAGAACAUGAGGAUCACCCAUGUAGAAGGCUGAAGAA [Seven kings]	apparent KD of MS2 coat protein	28.3

Given the entry GCUGUCCAAGGAUAUACAUGAGGAUCACCCAUGUGAGAGAAAAAAGUGAGAAAGAAAAGUAGAAGGUGGGUAGG [salish99-ex3-103] , report its measured apparent KD of MS2 coat protein.
31.6

Given the entry AAAAAGCGAGGAUAUACAUGAGGAUCACCCAUGUAAAAAAAAAGAGAUGAAACAUCAUGUAGAAGGCGCAAAAA [Excls3-I] , report its measured apparent KD of MS2 coat protein.
131

###

// apparent KD of MS2 coat protein lookup, one value per entry
# Tested on: MS2 coat protein
# Test Protocol: apparent KD of MS2 coat protein; designed switch direction (-1 OFF switch, 1 ON switch): -1; higher = weaker reporter binding
# Applied Conditions: Eterna round: R95; input ligand: none
State the answer as a number, implicitly in nM.

Examples with answers:
Residue String	Quantity Unit	Test Value
AAUAAUAAGGAGGAUAUCGUAUCGGAAACGAUACGAGAAGGCCUAACAUGAGGAUCACCCAUGUUCCUUAAUAA [Fiskers Ex 6 - 4] (puzzle: Exclusion 6)	nM	18.2
CAUACUAAAGUCAGGAUAUGCGGUCGAAUACGGGUGUAGAAGGGACAUGAGGAUCACCCAUGUAGAUAGUAAAG [EX-4 Malc #18] (puzzle: Brourd's mod of Exclusion 4)	nM	129
CAGACACAUGAGGAUCACCCAUGUGAGGAUAUGCGUACGUUGUCCGUAGGCGACGUGCGCAGAAGGCGCAAAGG [JL-ex1-3.10 Eli mod] (puzzle: Exclusion 1)	nM	79.4

Given the entry CAUGGAUGUGAGCCGCAUUACAUGAGGAUCACCCAUGUCAACAAGCUUUUUGCUUAUCUUACGCGGCGGCAUCAAAA [Enisusti] (puzzle: Sensor v3, turn-off variant 1) , report its measured apparent KD of MS2 coat protein.
9.39

Given the entry AUACAACAUGAGGAUCACCCAUGUGAGGAUAUGCGAUAUAUCAUCAUCAUAAUCAUAAGCAGAAGGCACAACAU [Another One] (puzzle: Exclusion 1) , report its measured apparent KD of MS2 coat protein.
34

Given the entry GAUCCUUAAGUCAGGAUAUCAAGCAAACUCAAAAUUGAGAAGGGACAUGAGGAUCACCCAUGUCACCGAAAUAA [Reteisus] (puzzle: Brourd's mod of Exclusion 4) , report its measured apparent KD of MS2 coat protein.
10.6

Given the entry AGAAGAAAAGAGAUUUGCUCGUCUUAUAAGUAUGAAGUAACAUGAGGAUCACCCAUGUAAGUCUAGUGAGAAGGAAG [JR_SV3TOV2_Sub001] (puzzle: Sensor v3, turn-off variant 2) , report its measured apparent KD of MS2 coat protein.
24.4

Given the entry AAGUAUAGAGGAUAUAGUAGGUACUACAUGAGGAUCACCCAUGUUCUUCAUUACGUAUUUCUAGAAGGCUGAUAAA [EX-5 Malc#26] (puzzle: Exclusion 5) , report its measured apparent KD of MS2 coat protein.
268

Given the entry GGUGCUGGCGCGUCGGUGUUGGUGCAAUAAGCUUGUGAAACAUGAGGAUCACCCAUGUCCUCAUAGGCUCGUCUUGU [salish99_TOv2_r2_088] (puzzle: Sensor v3, turn-off variant 2) , report its measured apparent KD of MS2 coat protein.
14.4

Given the entry GAAAAGGUAGGAUAUACGAAAAAAAAGGGUUGAAAAAAAACACAUGAGGAUCACCCAUGUAGAAGGACCAAAAG [salish99_ex2_r3_080] (puzzle: Exclusion 2) , report its measured apparent KD of MS2 coat protein.
26

Given the entry ACGUGAUAUCUGUCGGUGGACAUGAGGAUCACCCAUGUGAGCUUUUUGCUCGUCUUACAACCCGGUGACAGACCUUC [Bebitier] (puzzle: Sensor v3, turn-off variant 1) , report its measured apparent KD of MS2 coat protein.
21.4

Given the entry GUAGUGUGAGGAUAUGGUAAAGAUAAGAUGAUGAAAGAACUCCAGAAGGCACAUGAGGAUCACCCAUGUAGAUU [Mat - Exclusion 4 - Mod of JL - D26] (puzzle: Exclusion 4) , report its measured apparent KD of MS2 coat protein.
26

Given the entry GUGGUGACAGGAUAUACAUGAGGAUCACCCAUGUGAGGAGGAGGAGAGAGGUGAAGGAGUAGAAGGGUCAGAGA [JR_Exclu3_Sub025] (puzzle: Exclusion 3) , report its measured apparent KD of MS2 coat protein.
106

Given the entry CUUAGCCUAAAAUCACGCAAGCUUUUUGCUUGUCUUAAGACAUGAGGAUCACCCAUGUCCGGGCUGAACUUAUGGAA [Zarebe] (puzzle: Sensor v3, turn-off variant 2) , report its measured apparent KD of MS2 coat protein.
17.1

Given the entry GGUUGUUUUUUCCUUUCUUACAUGAGGAUCACCCAUGUUUCUUGUCGUGCUCGCGUUGCUCGUCUGUCUGUCUGUUG [salish99_TOv1_r3_074] (puzzle: Sensor v3, turn-off variant 1) , report its measured apparent KD of MS2 coat protein.
55.6

# credit: the supplement of paper PMC9170038
